System: Canis familiaris
measurement_protocol: In vivo percent change in canine renal vascular resistance (RVR) at 300 ug/Kg/min.
Type: functional, Canis lupus familiaris
Square brackets hold non-standard residues; d marks the D form. Peptide text beside a SMILES is read from it. * marks the point of attachment. ξ: configuration not given here. Butanoyl(4-(4-HOPh)) = O=C(CCCc1ccc(O)cc1)*; ξαMeY = CC(N)(Cc1ccc(O)cc1)C(=O)O; ξαMeF = CC(N)(Cc1ccccc1)C(=O)O; Bz = O=C(c1ccccc1)*
Each entry below carries its recorded Change.

Sample records with Change:
Asked: # return Change of CC(Cc1ccccc1)(NC(=O)[C@@H]1CCCN1)C(=O)NCCCN.Cl.Cl (stereo partly specified) (system: Canis familiaris)
Given back: -3%

Asked: # return Change of COc1ccc(CC(C)(NC(=O)[C@@H]2CCCN2C(=O)CCCc2ccc(O)cc2)C(=O)N[C@@H](CCCN=C(N)N)C(=O)O)cc1OC (stereo partly specified) (system: Canis familiaris)
Given back: -44.5%

Asked: # return Change of CC(Cc1ccccc1)(NC(=O)[C@@H]1CCCN1C(=O)CC12CC3CC(CC(C3)C1)C2)C(=O)N[C@@H](CCCN=C(N)N)C(=O)O (stereo partly specified) (system: Canis familiaris)
Given back: 21.5%

Asked: # return Change of COc1ccc(CC(C)(NC(=O)[C@@H]2CCCN2C(=O)CCCc2ccccc2)C(=O)N[C@@H](CCCN=C(N)N)C(=O)O)cc1OC (stereo partly specified) (system: Canis familiaris)
Given back: -7%

Asked: # return Change of CC(Cc1ccccc1)(NC(=O)[C@@H]1CCCN1C(=O)CCCc1ccccc1)C(=O)NCCCN.Cl (stereo partly specified) (system: Canis familiaris)
Given back: -11.5%

Further cases:
Asked: # return Change of CC(Cc1ccccc1)(NC(=O)[C@@H]1CCCN1C(=O)c1ccccc1)C(=O)N1CCC[C@H]1C(=O)O (stereo partly specified) (Bz-Pro-[ξαMeF]-Pro-OH) (system: Canis familiaris)
Given back: -4%

Asked: # return Change of "N=C(N)NCCC[C@H](NC(=O)[C@@H]1Cc2ccccc2CN1C(=O)CCCc1ccc(O)cc1)C(=O)O" (system: Canis familiaris)
Given back: 11%

Asked: # return Change of CC(Cc1ccc(O)cc1)(NC(=O)[C@@H]1CCCN1C(=O)CCCc1ccc(O)cc1)C(=O)NCC(=O)N1CCC[C@H]1C(=O)O (stereo partly specified) ({Butanoyl(4-(4-HOPh))}-P[ξαMeY]GP-OH) (system: Canis familiaris)
Given back: -5.9%

###

Test system: Canis familiaris
measurement_protocol: In vivo percent change in canine mean arterial blood pressure (MABP) at 30 ug/Kg/min.
Type: functional, Canis lupus familiaris
Each entry below carries its recorded Change.
Give the number; % is assumed, so skip it.

Sample records with Change:
Asked: Answer with the recorded Change of CC(CN[C@@H](CCCN=C(N)N)C(=O)O)(Cc1ccccc1)NC(=O)[C@@H]1CCCN1 (some centres not stated) only.
Given back: 1

Asked: Answer with the recorded Change of CC(Cc1ccc(O)cc1)(NC(=O)[C@@H]1CCCN1C(=O)CCCc1ccc(O)cc1)C(=O)NCCCN.Cl (some centres not stated) only.
Given back: 1

Continue with the molecule presented below.
Asked: Answer with the recorded Change of CC(Cc1ccccc1)(NC(=O)[C@@H]1CCCN1C(=O)CC12CC3CC(CC(C3)C1)C2)C(=O)N[C@@H](CCCN=C(N)N)C(=O)O (some centres not stated) only.
Given back: 1

###

Tested on: Canis familiaris
measurement_protocol: In vivo percent change in canine mean arterial blood pressure (MABP) at 300 ug/Kg/min.
Assay type: functional, Canis lupus familiaris
Square brackets hold non-standard residues; d marks the D form. Peptide text beside a SMILES is read from it. * marks the point of attachment. ξ: configuration not given here. ξαMeF = CC(N)(Cc1ccccc1)C(=O)O; Bz = O=C(c1ccccc1)*
measurement_label: Change (%)
Give the number; % is assumed, so skip it.

Asked: Answer with the recorded Change of CC(CN[C@@H](CCCN=C(N)N)C(=O)O)(Cc1ccccc1)NC(=O)[C@@H]1CCCN1 (stereo partly drawn) only.
Given back: -5

Asked: Answer with the recorded Change of CC(Cc1ccc(O)cc1)(NC(=O)[C@@H]1CCCN1C(=O)CCCc1ccc(O)cc1)C(=O)NCCCN.Cl (stereo partly drawn) only.
Given back: 0

Further cases:
Asked: Answer with the recorded Change of CC(Cc1ccccc1)(NC(=O)[C@@H]1CCCN1)C(=O)NCCCN.Cl.Cl (stereo partly drawn) only.
Given back: -1

Asked: Answer with the recorded Change of COc1ccc(CC(C)(NC(=O)[C@@H]2CCCN2C(=O)CCCc2ccc(O)cc2)C(=O)NCCCN)cc1OC.Cl (stereo partly drawn) only.
Given back: -1.5

Asked: Answer with the recorded Change of CC(Cc1ccccc1)(NC(=O)[C@@H]1CCCN1C(=O)c1ccccc1)C(=O)N1CCC[C@H]1C(=O)O (stereo partly drawn) (Bz-Pro-[ξαMeF]-Pro-OH) only.
Given back: -4

Asked: Answer with the recorded Change of COc1ccc(CC(C)(NC(=O)[C@@H]2CCCN2C(=O)CCCc2ccccc2)C(=O)N[C@@H](CCCN=C(N)N)C(=O)O)cc1OC (stereo partly drawn) only.
Given back: -2

Asked: Answer with the recorded Change of CC(CN[C@@H](CCCN=C(N)N)C(=O)O)(Cc1ccccc1)NC(=O)[C@@H]1CCCN1C(=O)CCCc1ccccc1 (stereo partly drawn) only.
Given back: 8

Asked: Answer with the recorded Change of CC(Cc1ccccc1)(NC(=O)[C@@H]1CCCN1C(=O)CCCc1ccccc1)C(=O)NCCCN.Cl (stereo partly drawn) only.
Given back: -3.5

###

System: Canis familiaris
measurement_protocol: In vivo percent change in canine heart rate at 300 ug/Kg/min.
Type: functional, Canis lupus familiaris
Square brackets hold non-standard residues; d marks the D form. Peptide text beside a SMILES is read from it. * marks the point of attachment. ξ: configuration not given here. Butanoyl(4-(4-HOPh)) = O=C(CCCc1ccc(O)cc1)*; ξαMeY = CC(N)(Cc1ccc(O)cc1)C(=O)O; ξαMeF = CC(N)(Cc1ccccc1)C(=O)O; Bz = O=C(c1ccccc1)*
Each entry below carries its recorded Change.
Give the number; % is assumed, so skip it.

Sample records with Change:
Asked: Answer with the recorded Change of "Cl.Cl.NCCCNC(=O)[C@H](Cc1ccccc1)NC(=O)[C@@H]1CCCN1" only.
Given back: -1

Asked: Answer with the recorded Change of CC(Cc1ccc(O)cc1)(NC(=O)[C@@H]1CCCN1C(=O)CCCc1ccc(O)cc1)C(=O)NCC(=O)N1CCC[C@H]1C(=O)O (stereo partly drawn) ({Butanoyl(4-(4-HOPh))}-P[ξαMeY]GP-OH) only.
Given back: -1.5

Asked: Answer with the recorded Change of CC(Cc1ccccc1)(NC(=O)[C@@H]1CCCN1C(=O)CCCc1ccc(O)cc1)C(=O)NCCCCCC(=O)O (stereo partly drawn) only.
Given back: -6

Asked: Answer with the recorded Change of COc1ccc(CC(C)(NC(=O)[C@@H]2CCCN2C(=O)CCCc2ccccc2)C(=O)N[C@@H](CCCN=C(N)N)C(=O)O)cc1OC (stereo partly drawn) only.
Given back: 2.5

Asked: Answer with the recorded Change of CC(CN[C@@H](CCCN=C(N)N)C(=O)O)(Cc1ccccc1)NC(=O)[C@@H]1CCCN1 (stereo partly drawn) only.
Given back: -7

Further cases:
Asked: Answer with the recorded Change of "N=C(N)NCCC[C@H](NC[C@H](Cc1ccccc1)NC(=O)[C@@H]1CCCN1)C(=O)O" only.
Given back: 0

Asked: Answer with the recorded Change of CC(Cc1ccccc1)(NC(=O)[C@@H]1CCCN1C(=O)CCCc1ccccc1)C(=O)N1CCC[C@H]1C(=O)O (stereo partly drawn) only.
Given back: -2

Asked: Answer with the recorded Change of CC(Cc1ccccc1)(NC(=O)[C@@H]1CCCN1C(=O)c1ccccc1)C(=O)N1CCC[C@H]1C(=O)O (stereo partly drawn) (Bz-Pro-[ξαMeF]-Pro-OH) only.
Given back: 0

###

System: Canis familiaris
measurement_protocol: In vivo percent change in canine mean arterial blood pressure (MABP) at 300 ug/Kg/min.
Format: functional, Canis lupus familiaris
Square brackets hold non-standard residues; d marks the D form. Peptide text beside a SMILES is read from it. * marks the point of attachment. ξ: configuration not given here. Butanoyl(4-(4-HOPh)) = O=C(CCCc1ccc(O)cc1)*; ξαMeF = CC(N)(Cc1ccccc1)C(=O)O; Bz = O=C(c1ccccc1)*
measurement_label: Change (%)
Give the number; % is assumed, so skip it.

Asked: Answer with the recorded Change of COc1ccc(CC(C)(NC(=O)[C@@H]2CCCN2C(=O)CCCc2ccc(O)cc2)C(=O)N[C@@H](CCCN=C(N)N)C(=O)O)cc1OC (stereo partly drawn) only.
Given back: -32

Asked: Answer with the recorded Change of "N=C(N)NCCC[C@H](NC[C@H](Cc1ccccc1)NC(=O)[C@@H]1CCCN1)C(=O)O" only.
Given back: -2

Asked: Answer with the recorded Change of "Cl.NCCCNC(=O)[C@H](Cc1ccccc1)NC(=O)[C@@H]1CCCN1C(=O)CCCc1ccccc1" only.
Given back: -2.7

Asked: Answer with the recorded Change of "N=C(N)NCCC[C@H](NC(=O)[C@@H]1Cc2ccccc2CN1C(=O)CCCc1ccc(O)cc1)C(=O)O" only.
Given back: -2

Asked: Answer with the recorded Change of CC(Cc1ccccc1)(NC(=O)[C@@H]1CCCN1C(=O)CCCc1ccc(O)cc1)C(=O)NCCCCCC(=O)O (stereo partly drawn) only.
Given back: 1

Further cases:
Asked: Answer with the recorded Change of O=C(NCC(=O)N1CCC[C@H]1C(=O)O)[C@H](Cc1ccccc1)NC(=O)[C@@H]1CCCN1C(=O)CCCc1ccc(O)cc1 ({Butanoyl(4-(4-HOPh))}-PFGP-OH) only.
Given back: -1.5

Asked: Answer with the recorded Change of CC(Cc1ccccc1)(NC(=O)[C@@H]1CCCN1C(=O)c1ccccc1)C(=O)N[C@@H](CCCN=C(N)N)C(=O)O (stereo partly drawn) (Bz-Pro-[ξαMeF]-Arg-OH) only.
Given back: -4

Asked: Answer with the recorded Change of CC(Cc1ccccc1)(NC(=O)[C@@H]1CCCN1C(=O)CCCc1ccc(O)cc1)C(=O)NCCCN.Cl (stereo partly drawn) only.
Given back: -1.4

// provenance: ChEMBL document CHEMBL1122774
